Recorded measurements of growth, one per entry
Tested on: HOP-92 NSCLC
Test: NCI-60 one-dose screen, 48 h (100 = growth as untreated, 0 = no growth, -100 = all killed)
Details: 10 µM unless noted
The panel holds about 83,000 compounds, 20% with a hit somewhere; the sample as a whole holds those more often.
Write the value in % as a bare number.

Recorded result, COc1ccc(Nc2nnc(-c3c[nH]c4ccccc34)o2)cc1 , growth: 84.5

Recorded result, COc1ccc(-c2nc3ccc(-c4nnc(SCC(=O)Nc5ccc(/C(C)=N\O)cc5)o4)cc3[nH]2)cc1 , growth: 104

Recorded result, O=c1ccc(Cn2c(C(F)(F)F)cc3c(Cl)ncnc32)c[nH]1 , growth: 78.6

Recorded result, C=CCSc1nnc(-c2ccc(-c3nc4ccc(Cl)cc4[nH]3)cc2)o1 , growth: 81.8

----------
Test system: OVCAR-8 ovarian
Test: NCI-60 one-dose screen, 48 h (100 = growth as untreated, 0 = no growth, -100 = all killed)
Settings: 10 µM unless noted
Method: Growth inhibition of the OVCAR-8 human tumor cell line is measured as a screen for anti-cancer activity. Cells are grown in 96 well plates and exposed to the test compound for 48 hours. Compounds are tested at a single concentration, which is 10^-5 M for most compounds. The reported endpoint is percent growth (GI% or GIPRCNT), where numbers from 0 - 100% represent growth inhibition, and numbers from -100% - 0 represent cell death. For example, a value of 40 represents 60% growth inhibition. […]
This is part of a sample that, as a whole, favours compounds with a hit. Of some 83,000 tested, about 20% had one in any assay.
Recorded measurements of growth, one per entry
Write the value in % as a bare number.

Compound	Measurement
N#CC1=C(c2cccs2)Nc2c(c(-c3ccccc3)nn2-c2ccccc2)C12C(=O)Nc1ccc(Br)cc12 (stereo unspecified)	-14.6
COc1cc(NC(=O)CSc2nnc(-c3ccc(-c4nc5ccc(Cl)cc5[nH]4)cc3)o2)cc(OC)c1OC	62.6
COc1cc(C2CC(c3ccc(Cl)cc3)=Nc3c(N)nc(N)nc3N2)ccc1Oc1nc(Nc2ccc(F)cc2)nc(N(C)C)n1 (stereo unspecified)	65
O=C1/C(=C/C=C/c2ccco2)SC(=S)N1CC(=S)C1C=CS(=O)(=O)C1 (stereo unspecified)	97.1
O=C(N/N=C/c1ccc(-c2cccc([N+](=O)[O-])c2)s1)c1[nH]c2ccc(Br)cc2c1-c1ccccc1	95.9

Recorded result, O=C(CSc1nnc(-c2ccc(-c3nc4ccc(Cl)cc4[nH]3)cc2)o1)Nc1ccccc1 , growth: -44.3

----------
Test system: SF-295 CNS
Test: NCI-60 one-dose screen, 48 h
Details: 10 µM unless noted
This is part of a sample that, as a whole, favours compounds with a hit. Of some 83,000 tested, about 20% had one in any assay. Calls of active or inactive are those of the source. Rule for the calls: active = growth percent below 10; inactive = the rest.
Outcomes you can answer with include only these: 1 (yes) = active, 0 (no) = inactive

Look over these answered cases.
Molecule	Label class
COc1sc(/C=N/NC(=O)c2[nH]c3ccc(Br)cc3c2-c2ccccc2)cc1Br	1 (yes)
FC(F)(F)c1cc2c(Cl)ncnc2n1CCN1CCCCC1	0 (no)
N#C/C(=C/c1ccc(Cl)cc1)c1nnc(NC(=O)c2ccc(-n3c(=O)[nH]c4ccccc4c3=O)cc2)s1	0 (no)

Exercise: What call does the record list for COc1cc(/C=C/C(=O)c2cnn(-c3cc(=O)[nH]c4ccccc34)c2C)cc(OC)c1OC ?
Solution: 0 (no)
